Taken from patent US10266544B2.

- Test system: Streptococcus pneumoniae clinical isolates representing several serotypes
- protocol summary: MIC determination, Streptococcus pneumoniae panel of clinical isolates (Table 7)
- Format: cell-based
- setup conditions: Streptococcus pneumoniae; S. pneumoniae BHN97x, Drug Susceptible; read-out: MIC BHN97x
Structures can show the parent of a compound that is named as a salt.
measured parameter: MIC
Note to self: number, then unit, no commentary.

Here is how some compounds turned out for MIC.
For record CN[C@@H]1[C@H](O)[C@H](NC)[C@H]2O[C@@]3(O)C(=O)C[C@@H](C)O[C@H]3O[C@@H]2[C@H]1O [SPC, reference compound] the listed MIC is 6.3 µg/mL

Sample CCOc1ccc(CNC[C@]2(O)C[C@@H](C)O[C@H]3O[C@@H]4[C@@H](O)[C@H](NC)[C@H](O)[C@H](NC)[C@H]4O[C@]32O)cc1 [compound 4, Trihydrochloride] ; MIC observed: 1.6 µg/mL

Continue with the next compound.
Entry CCc1ccc(CNC[C@]2(O)C[C@@H](C)O[C@H]3O[C@@H]4[C@@H](O)[C@H](NC)[C@H](O)[C@H](NC)[C@H]4O[C@]32O)cc1 [compound 3, Trihydrochloride] ; MIC = 3.1 µg/mL

---

- Tested on: Yersinia pestis
- protocol summary: microbe, parasite or virus in culture
- Format: cell-based
- setup conditions: read-out: MIC Y.p.
Structures can show the parent of a compound that is named as a salt.
Exercise: state measured MIC for each of the compounds provided.
Give bare numbers, in µg/mL.

Before answering, review these 3 worked examples.
Tested on Yersinia pestis, the item CN[C@@H]1[C@H](O)[C@H](NC)[C@H]2O[C@]3(O)[C@H](O[C@@H]2[C@H]1O)O[C@H](C)C[C@@]3(O)CNCc1ccccn1 [compound 16] showed MIC equal to 100

The recorded MIC with Yersinia pestis for CN[C@@H]1[C@H](O)[C@H](NC)[C@H]2O[C@]3(O)[C@H](O[C@@H]2[C@H]1O)O[C@H](C)C[C@@]3(O)CNCc1ccccc1OC(F)(F)F [compound 10, Trihydrochloride] was 200

The reported MIC value, Yersinia pestis, for CN[C@@H]1[C@H](O)[C@H](NC)[C@H]2O[C@]3(O)[C@H](O[C@@H]2[C@H]1O)O[C@H](C)C[C@@]3(O)CNCc1cccc(F)c1 [compound 15, Trihydrochloride] reads 100

More entries:
GET /values?item= CN[C@@H]1[C@H](O)[C@H](NC)[C@H]2O[C@]3(O)[C@H](O[C@@H]2[C@H]1O)O[C@H](C)C[C@@]3(O)CNCCCc1ccccc1 [compound 13, Trihydrochloride] &system= Yersinia pestis returns MIC: 50

---

- Test system: Bacillus anthracis, Sterne 34F2
- protocol summary: microbe, parasite or virus in culture
- Format: cell-based
- setup conditions: STERNE34F2, read-out: MIC B.a.
Structures can show the parent of a compound that is named as a salt.
measured parameter: MIC

Simply: CN[C@@H]1[C@H](O)[C@H](NC)[C@H]2O[C@]3(O)[C@H](O[C@@H]2[C@H]1O)O[C@H](C)C[C@@]3(O)CNCc1ccc(Cl)s1 [compound 21, Trihydrobromide] , Bacillus anthracis, Sterne 34F2, MIC = 50 µg/mL

Provide MIC values for the following items, in order.
1. CN[C@@H]1[C@H](O)[C@H](NC)[C@H]2O[C@]3(O)[C@H](O[C@@H]2[C@H]1O)O[C@H](C)C[C@@]3(O)CNCc1ccccn1 [compound 16]
2. CN[C@@H]1[C@H](O)[C@H](NC)[C@H]2O[C@]3(O)[C@H](O[C@@H]2[C@H]1O)O[C@H](C)C[C@@]3(O)CNCc1ccccc1F [compound 14, Trihydrochloride]
3. CN[C@@H]1[C@H](O)[C@H](NC)[C@H]2O[C@]3(O)[C@H](O[C@@H]2[C@H]1O)O[C@H](C)C[C@@]3(O)CNCc1ccccc1Cl [compound 56, Trihydrobromide]

Solution:
50 µg/mL
50 to 100 µg/mL
> 200 µg/mL
